Biological target: MEK1 activated ERK1 (Homo sapiens)
Construct: purchased Millipore (Billerica, Mass.) 14-439-K
Test: Omnia continuous-read kinase assay for potency against MEK1 activated ERK1
Assay type: biochemical
Settings: MEK1 activated ERK1, ATP at KM; read-out: ERK1 Omnia WT ATP KM IC50
From the text: Omnia Assay Protocol for Potency Assessment Against MEK1 Activated ERK1: The protocol below describes continuous-read kinase assays to measure potency of compounds against activated ERK1 enzyme. The mechanics of the assay platform are best described by the vendor (Invitrogen, Carlsbad, Calif.) on their website at the following URL: invitrogen.com/site/us/en/home.html. […]
measured-attribute: IC50

For orientation, consider the following solved cases.
[[record]]
compound = "C=CC(=O)Nc1cc(OC)ccc1Nc1nc(Nc2ccc3c(c2)CC(=O)N3CC)ncc1Cl [Compound I-166]"
assayed_system = "MEK1 activated ERK1 (Homo sapiens)"
measured_attribute = "IC50"
result = "101 to 500 nM"

[[record]]
compound = "C=CC(=O)Nc1cc(OC)ccc1Nc1nc(Nc2ccc(N3CCC[C@@H]3CO)cc2C#N)ncc1Cl [Compound I-181]"
assayed_system = "MEK1 activated ERK1 (Homo sapiens)"
measured_attribute = "IC50"
result = "501 to 999 nM"

[[record]]
compound = "C=CC(=O)Nc1ccccc1Nc1nc(N[C@H]2CCCN(C(=O)[C@@H](O)CO)C2)ncc1C(F)(F)F [Compound I-50]"
assayed_system = "MEK1 activated ERK1 (Homo sapiens)"
measured_attribute = "IC50"
result = "101 to 500 nM"

[[record]]
compound = "C=CC(=O)Nc1ccccc1Nc1nc(Nc2ccc(N3CCN(C(C)=O)CC3)cc2OC)ncc1Cl [Compound I-149]"
assayed_system = "MEK1 activated ERK1 (Homo sapiens)"
measured_attribute = "IC50"
result = "101 to 500 nM"

[[record]]
compound = "C=CC(=O)Nc1cc(C)ccc1Nc1nc(Nc2cc(C(=O)NCCO)c(F)cc2C)ncc1Cl [Compound I-234]"
assayed_system = "MEK1 activated ERK1 (Homo sapiens)"
measured_attribute = "IC50"
result = "101 to 500 nM"

[[record]]
compound = "C=CC(=O)N[C@@H]1CCCC[C@H]1Oc1nc(Nc2cc(C(N)=O)ccc2C)ncc1C(N)=O (racemic) [Compound I-268]"
assayed_system = "MEK1 activated ERK1 (Homo sapiens)"
measured_attribute = "IC50"
result = "> 1000 nM"

[[record]]
compound = "C=CC(=O)Nc1ccccc1Nc1nc(N[C@H]2CCCN(C(=O)[C@H](C)O)C2)ncc1Cl [Compound I-138]"
assayed_system = "MEK1 activated ERK1 (Homo sapiens)"
measured_attribute = "IC50"
result = "501 to 999 nM"

[[record]]
compound = "C=C(C)S(=O)(=O)Nc1cc(F)ccc1Nc1nc(Nc2cc(C(C)=O)ccc2C)ncc1C(F)(F)F [Compound I-99]"
assayed_system = "MEK1 activated ERK1 (Homo sapiens)"
measured_attribute = "IC50"
result = "501 to 999 nM"

[[record]]
compound = "C=CC(=O)Nc1ccccc1Nc1nc(Nc2ccnnc2)ncc1C(F)(F)F [Compound I-293]"
assayed_system = "MEK1 activated ERK1 (Homo sapiens)"
measured_attribute = "IC50"
result = "101 to 500 nM"

[[record]]
compound = "C=CC(=O)N[C@@H]1CCCC[C@H]1Nc1nc(Nc2cc(C(=O)NOC)ccc2C)ncc1C(N)=O (racemic) [Compound I-256]"
assayed_system = "MEK1 activated ERK1 (Homo sapiens)"
measured_attribute = "IC50"
result = "> 1000 nM"


Sure, the documented IC50 for C=CC(=O)Nc1ccccc1Nc1nc(N[C@H]2CCCN(C(=O)C=O)C2)ncc1C(F)(F)F [Compound I-52] is 101 to 500 nM

IC50 for C=CC(=O)Nc1cc(C)ccc1Nc1nc(Nc2cc(OC)nc(N(C)CCOC)c2)ncc1C(F)(F)F [Compound I-336] is 501 to 999 nM

====

Tested on: HT-29 cells (colorectal adenocarcinoma)
Test: Inhibition of cancer cell proliferation, HT-29 (CellTiterGlo, 72 hours)
Format: cell-based
Conditions: Homo sapiens
measured-attribute: GI50

[[record]]
molecule = "CN(C)CCC(=O)Nc1ccccc1Nc1nc(N[C@H]2CCCN(C(=O)CO)C2)ncc1C(F)(F)F"
assayed_system = "HT-29 cells (colorectal adenocarcinoma)"
result = "101 to 500 nM"

[[record]]
molecule = "C=CC(=O)Nc1ccccc1Nc1nc(Nc2ccc(NC(=O)CCCC(=O)NCCCOCCOCCOCCCNC(=O)CCCC[C@H]3SC[C@H]4NC(=O)N[C@H]43)cc2OC)ncc1Cl"
assayed_system = "HT-29 cells (colorectal adenocarcinoma)"
result = "> 1000 nM"


Let us move to another entry and its GI50.
response.value for C=CC(=O)Nc1ccccc1Nc1nc(N[C@H]2CCC[C@@H](CO)C2)ncc1Cl (racemic) (field: GI50) = < 100 nM

====

Tested on: HT-29 cells (colorectal adenocarcinoma)
Assay: Inhibition of cancer cell proliferation, HT-29 (CellTiterGlo, 72 hours)
Format: cell-based
Settings: Homo sapiens
measured-attribute: GI50

Look over these answered cases.
[[record]]
compound = "C=CC(=O)Nc1ccccc1Nc1nc(Nc2cc(C(N)=O)ccc2C#N)ncc1Cl [Compound I-192]"
result = "< 100 nM"

[[record]]
compound = "C=CC(=O)Nc1ccccc1Nc1nc(NC2CCOCC2)ncc1Cl [Compound I-108]"
result = "< 100 nM"

[[record]]
compound = "C=CC(=O)Nc1ccccc1Nc1nc(N[C@H]2CCN(S(C)(=O)=O)C2)ncc1C(F)(F)F [Compound I-58]"
result = "101 to 500 nM"

[[record]]
compound = "C/C=C/S(=O)(=O)Nc1cc(F)ccc1Nc1nc(N[C@H]2CCCN(C(=O)CO)C2)ncc1C(F)(F)F [Compound I-48]"
result = "> 1000 nM"

[[record]]
compound = "C=CC(=O)Nc1cc(C)ccc1Nc1nc(Nc2nc(OC)ncc2F)ncc1C(F)(F)F [Compound I-357]"
result = "< 100 nM"


What the record says about C=CC(=O)Nc1ccccc1Nc1nc(N[C@H]2CCCN(C(=O)CC)C2)ncc1Cl [Compound I-131] : GI50 is < 100 nM

Lab note: measured GI50 of C=CC(=O)Nc1cc(C)ccc1Nc1nc(Nc2ccnc(OC)c2)ncc1Cl [Compound I-235] was < 100 nM

Quick note, GI50 for C=CC(=O)Nc1cc(OC)ccc1Nc1nc(Nc2cc(OC)nc(N3CCN(C)CC3)c2)ncc1C(F)(F)F [Compound I-334] landed at < 100 nM

====

Below is a list of entries, each paired with its recorded pIC50 value.
Molecular target: MEK1 activated ERK1 (Homo sapiens, UniProt P27361)
Construct: purchased Millipore (Billerica, Mass.) 14-439-K
Sequence (P27361 whole entry): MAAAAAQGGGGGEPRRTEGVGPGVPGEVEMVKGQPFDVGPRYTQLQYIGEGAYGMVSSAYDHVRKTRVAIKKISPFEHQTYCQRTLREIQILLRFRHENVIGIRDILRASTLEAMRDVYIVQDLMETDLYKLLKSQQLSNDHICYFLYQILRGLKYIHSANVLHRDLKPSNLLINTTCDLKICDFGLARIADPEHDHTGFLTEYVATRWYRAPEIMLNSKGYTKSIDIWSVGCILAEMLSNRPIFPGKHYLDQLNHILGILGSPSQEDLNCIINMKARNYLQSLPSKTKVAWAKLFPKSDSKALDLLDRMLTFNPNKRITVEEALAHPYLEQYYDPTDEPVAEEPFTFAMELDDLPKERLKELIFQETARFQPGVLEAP
Experiment: Omnia continuous-read kinase assay for potency against MEK1 activated ERK1
Assay type: biochemical
Details: MEK1 activated ERK1, ATP at KM; read-out: ERK1 Omnia WT ATP KM IC50
pIC50: −log10 of the molar value.

GET /value?item= `C=CC(=O)Nc1ccccc1Nc1nc(Nc2ccc(F)cc2C)ncc1Cl` &field=pIC50 returns 6.30 to 7.00

// sample `C=CC(=O)Nc1ccccc1Nc1nc(N[C@H]2CC[C@H](C(N)=O)CC2)ncc1Cl` , its pIC50 was 6.30 to 7.00

The measured pIC50 associated with `C=CC(=O)Nc1cc(C)ccc1Nc1nc(Nc2cc(N[C@H]3CC[C@](C)(O)CC3)nc(OC)c2)ncc1C(F)(F)F` reads 6.30 to 7.00

Recorded pIC50 (compound `C=CC(=O)Nc1ccccc1Nc1nc(Nc2cc(C(=O)O)ccc2C)ncc1C(F)(F)F` ): 6.00 to 6.30

GET /value?item= `C=CC(=O)Nc1ccccc1Nc1nc(Nc2ccnc(F)c2)ncc1C(F)(F)F` &field=pIC50 returns 6.30 to 7.00

pIC50 for `C=CC(=O)Nc1ccccc1Nc1nc(NC2CCN(C(=O)CCCC(=O)NCCCOCCOCCOCCCNC(=O)CCCC[C@@H]3SC[C@@H]4NC(=O)N[C@@H]43)CC2)ncc1Cl` is 6.30 to 7.00

====

This listing pairs molecules with measured EC50.
Test system: ERK1/2 phosphorylation of p90RSK in HCT116 cells
Assay: Detection of total and phospho-RSK by MSD ELISA (HCT116)
Assay type: cell-based
Settings: Homo sapiens, HCT-116, read-out: ERK1/ERK2 PRSK HCT116 EC50

See these solved cases before continuing.
[[record]]
line_notation = "C#CCOc1cc(C)c(Nc2ncc(C(F)(F)F)c(Nc3ccc(C)cc3NC(=O)C=C)n2)cc1C(N)=O"
result = "> 1000 nM"

[[record]]
line_notation = "C=CC(=O)Nc1cc(C)ccc1Nc1nc(Nc2cc(OC)cnc2Cl)ncc1C(F)(F)F"
result = "101 to 500 nM"

[[record]]
line_notation = "C=CC(=O)Nc1cc(C)ccc1Nc1nc(Nc2cc(OCCOC)ncc2C)ncc1C(F)(F)F"
result = "501 to 999 nM"

[[record]]
line_notation = "C=CC(=O)Nc1cc(OCC(=O)N2CCN(c3ncccn3)CC2)ccc1Nc1nc(Nc2cc(OC)ncc2C)ncc1C(F)(F)F"
result = "101 to 500 nM"

[[record]]
line_notation = "C=CC(=O)Nc1cc(OCCN)ccc1Nc1nc(Nc2cc(OC)ncc2C)ncc1C(F)(F)F"
result = "101 to 500 nM"

[[record]]
line_notation = "C=CC(=O)Nc1ccccc1Nc1nc(Nc2cc(OC)nc(N3CCN(C(C)=O)CC3)c2)ncc1C(F)(F)F"
result = "< 100 nM"


Field: next molecule
// field: EC50; key: `C=CC(=O)Nc1cc(CN2CCN(C(=O)c3cccnc3)CC2)ccc1Nc1nc(Nc2nc(OC)ncc2C)ncc1C(F)(F)F` ; value = > 1000 nM
